ASSAY_SYSTEM: T1, interleukin-2 beta receptor (SYMANSIS, #4122H) to which a human immunoglobulin Fc region was linked (UniProt P14784 27-239, limits assumed)
T1 construct: Bought receptor-Fc, captured on anti-human immunoglobulin antibody; also called IL-2Rβ; CD122; not shown: human immunoglobulin Fc region
T1 sequence (looked up): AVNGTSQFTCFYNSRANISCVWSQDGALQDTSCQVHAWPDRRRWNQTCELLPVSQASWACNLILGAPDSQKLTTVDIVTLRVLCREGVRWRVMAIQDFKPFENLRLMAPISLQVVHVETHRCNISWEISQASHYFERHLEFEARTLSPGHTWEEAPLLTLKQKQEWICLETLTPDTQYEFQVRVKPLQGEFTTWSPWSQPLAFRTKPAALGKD
METHOD_DESCRIPTION: SPR (Biacore T200); receptor-Fc captured on anti-human Ig CM5 chip, analog flowed; relative to analog 1 = 100%
Procedure: In order to measure the binding affinities of the interleukin-2 analogs obtained in Example 4 for each of interleukin-2 alpha and beta receptors, surface plasmon resonance (SPR, BIACORE T200, GE Healthcare) was used. The binding affinities of the prepared analogs for the alpha and beta receptors were measured, and the binding affinity of each of the prepared analogs was compared with that of interleukin-2 analog 1 (aldesleukin). […]
Below is a list of entries, each paired with its recorded Relative binding affinity (%) value.

BINDER	UNITS_SYMBOL	Relative binding affinity (%)
interleukin-2 analog 34 (ligand) PTSSSTKKTQLQLEHLLLDLQMILNGINNYKNPKLTAMLTFKFYMPKKATELKHLQCLEEELKPLEEVLNLAQSKNFHFRPRELISNINVIVLELKGSETTFMCEYADETATIVEFLNRWITFSQSIISTLT	%	322
interleukin-2 analog 16 (ligand) PTSSSTKKTQLQLEHLLLDLQMILNGINNYKNPKLTAMLTKKFYMPKKATELKHLQCLEEELKPLEEVLNLAQSKNFHLRPRDLISQINVIVLELKGSETTFMCEYADETATIVEFLNRWITFSQSIISTLT	%	1260
interleukin-2 analog 31 (ligand) PTSSSTKKTQLQLEHLLLDLQMILNGINNYKNPKLTAMLTFKFYMPKKATELKHLQCLEEELKPLEEVLNLAQSKNFHLRPRELISNINVIVLELKGSETTFMCEYADETATIVEFLNRWITFSQSIISTLT	%	236
interleukin-2 analog 105 (ligand) PTSSSTKKTQLQLEHLRLDLEMILNGINNYKNPKLTRMLTFKFYMPKKATELKHLQCLEEELKPLEDVLNLAQSKNFHFEPRDVVSNINVFVLELKGSETTFMCEYADETATIVEFLNRWITFSQSIISTLT	%	26800
interleukin-2 analog 19 (ligand) PTSSSTKKTQLQLEHLLLDLQMILNGINNYKNPKLTAMLTKKFYMPKKATELKHLQCLEEELKPLEEVLNLAQSKNFHLDPRDLISNINVFVLELKGSETTFMCEYADETATIVEFLNRWITFSQSIISTLT	%	455
interleukin-2 analog 104 (ligand) PTSSSTKKTQLQLEHLRLDLEMILNGINNYKNPKLTRMLTFKFYMPKKATELKHLQCLEDELKPLEEVLNLAQSKNFHFEPRDVVSNINVFVLELKGSETTFMCEYADETATIVEFLNRWITFSQSIISTLT	%	25400
interleukin-2 analog 88 (ligand) PTSSSTKKTQLQLEHLLLDLQMILNGINNYKNPKLTRMLTFKFYMPKKATELKHLQCLEDELKPLEEVLNLAQSKNFHFEPRDVVSNINVFVLELKGSETTFMCEYADETATIVEFLNRWITFSQSIISTLT	%	13900
interleukin-2 analog 24 (ligand) PTSSSTKKTQLQLEHLLVDLQMILNGINNYKNPKLTAMLTKKFYMPKKATELKHLQCLEEELKPLEEVLNLAQSKNFHLRPRDLISNINVIVLELKGSETTFMCEYADETATIVEFLNRWITFSQSIISTLT	%	37.9
interleukin-2 analog 59 (ligand) PTSSSTKKTQLQLEHLLLDLQMILNGINNYKNPKLTAMLTKKFYMPKKATELKHLQCLEEELKPLEEVLNLAQSKNFHFDPRDAASNINVYVLELKGSETTFMCEYADETATIVEFLNRWITFSQSIISTLT	%	1530
interleukin-2 analog 20 (ligand) PTSSSTKKTQLQLEHLLLDLQMILNGINNYKNPKLTAMLTKKFYMPKKATELKHLQCLEEELKPLEEVLNLAQSKNFHLRPRDVVSNINVFVLELKGSETTFMCEYADETATIVEFLNRWITFSQSIISTLT	%	156
interleukin-2 analog 61 (ligand) PTSSSTKKTQLQLEHLLLDLQMILNGINNYKNPKLTAMLTKKFYMPKKATELKHLQCLEEELKPLEEVLNLAQSKNFHYDPRDGVSNINVYVLELKGSETTFMCEYADETATIVEFLNRWITFSQSIISTLT	%	1040
interleukin-2 analog 35 (ligand) PTSSSTKKTQLQLEHLLLDLQMILNGINNYKNPKLTAMLTFKFYMPKKATELKHLQCLEEELKPLEEVLNLAQSKNFHLRPRDLISNINVIVFEFKGSETTFMCEYADETATIVEFLNRWITFSQSIISTLT	%	233
interleukin-2 analog 18 (ligand) PTSSSTKKTQLQLEHLLLDLQMILNGINNYKNPKLTAMLTKKFYMPKKATELKHLQCLEQELKPLEEVLNLAQSKNFHLRPRDLISNINVIVLELKGSETTFMCEYADETATIVEFLNRWITFSQSIISTLT	%	35.3
interleukin-2 analog 41 (ligand) PTSSSTKKTQLQLEHLLLDLQMILNGINNYKNPKLTRMLTFKFYMPKKATELKHLQCLEEELKPLEEVLNLAQSKNFHFDPRDVVSNINVFVLELKGSETTFMCEYADETATIVEFLNRWITFSQSIISTLT	%	22800

Entry source: patent US20260242436A1
